Data provenance: patent US11497734B2

biological target: PD-L1 (Mus musculus, UniProt Q9EP73); construct: Fc (Fc chimera); purchased R&D Systems 1019-B7-100; assay: Rescue of mouse splenocyte proliferation in the presence of recombinant PD-L1 (CFSE proliferation assay); format: cell-based; details: 100 nM compound; anti-CD3/CD28 stimulated mouse splenocytes + PD-L1; 72 h; read-out: PDL1 (rescue of proliferation @ 100 nM)
Sequence (Q9EP73 19-238 limits assumed): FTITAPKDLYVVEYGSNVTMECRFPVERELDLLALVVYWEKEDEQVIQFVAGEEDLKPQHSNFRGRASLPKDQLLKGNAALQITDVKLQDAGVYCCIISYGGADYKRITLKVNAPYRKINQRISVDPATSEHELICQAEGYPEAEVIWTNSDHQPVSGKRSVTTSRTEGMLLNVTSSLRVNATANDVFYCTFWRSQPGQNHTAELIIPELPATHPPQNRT
activity at 0.1 µM below 60% gives Not met; activity at 0.1 µM at or above it gives Met.

Illustrative cases are given below, each with its answer.
compound	group_label
N=C(N)NCCC[C@H](N)c1noc([C@H](CC(N)=O)NC(=O)N[C@@H](CO)C(=O)O)n1 [Compound 25]	Met
CC(=O)NCCCC[C@H](NC(=O)N[C@H](C(=O)O)C(C)O)c1nc([C@@H](N)CO)no1 (stereo partly shown) [Compound 20]	Not met

Task: Decide: activity at 0.1 µM of CC(O)[C@H](NC(=O)N[C@@H](CCC(=O)O)c1nc([C@@H](N)CCCCN)no1)C(=O)O (stereo partly shown) [Compound 6] >= 60%?
Result: Not met

Task: Decide: activity at 0.1 µM of CC(O)[C@H](NC(=O)N[C@@H](CC(N)=O)c1nc([C@@H](N)Cc2ccc(O)cc2)no1)C(=O)O (stereo partly shown) [Compound 21] >= 60%?
Result: Not met

* * *

Parameter activity at 0.1 µM: see the listing below.
biological target: PD-L1 (Mus musculus, UniProt Q9EP73); construct: Fc (Fc chimera); purchased R&D Systems 1019-B7-100; assay: Rescue of mouse splenocyte proliferation in the presence of recombinant PD-L1 (CFSE proliferation assay); type: cell-based; settings: 100 nM compound; anti-CD3/CD28 stimulated mouse splenocytes + PD-L1; 72 h; read-out: PDL1 (rescue of proliferation @ 100 nM)
The answer is to be given in %; state only the numeric part.

Below: 4 compounds and their reported activity at 0.1 µM.
compound	activity at 0.1 µM (%)
CC(O)[C@H](NC(=O)N[C@@H](CC(=O)O)c1nc([C@@H](N)CO)no1)C(=O)O (stereo partly shown)	52
CC(O)[C@H](NC(=O)N[C@@H](CC(N)=O)c1nc([C@@H](O)CO)no1)C(=O)O (stereo partly shown)	65
NCCCC[C@H](N)c1noc([C@H](CCC(=O)O)NC(=O)N[C@@H](CO)C(=O)O)n1	60
CC(O)[C@@H](N)c1noc([C@@H](CC(N)=O)NC(=O)N[C@H](CO)C(=O)O)n1 (stereo partly shown)	68

Task: Give activity at 0.1 µM for the following compound: "CC(C)[C@H](NC(=O)N[C@@H](CC(N)=O)c1nc([C@@H](N)CCCCN)no1)C(=O)O"
Result: 138

Task: Give activity at 0.1 µM for the following compound: CC(O)[C@H](NC(=O)N[C@H](CC(N)=O)c1nc([C@@H](N)CO)no1)C(=O)O (stereo partly shown)
Result: 74

Task: Give activity at 0.1 µM for the following compound: CC(O)[C@H](NC(=O)N[C@@H](CCC(=O)O)c1nc([C@@H](N)CO)no1)C(=O)O (stereo partly shown)
Result: 88

Task: Give activity at 0.1 µM for the following compound: "NCCCC[C@H](N)c1noc([C@H](CC(N)=O)NC(=O)N[C@@H](CO)C(=O)O)n1"
Result: 41

Task: Give activity at 0.1 µM for the following compound: "N[C@@H](Cc1ccc(O)cc1)c1noc([C@@H]2CCCCN2C(=O)N[C@@H](Cc2ccc(O)cc2)C(=O)O)n1"
Result: 54

Task: Give activity at 0.1 µM for the following compound: CC(O)[C@H](NC(=O)N[C@@H](CCCCN)c1nc([C@@H](N)CO)no1)C(=O)O (stereo partly shown)
Result: 66

Task: Give activity at 0.1 µM for the following compound: CC(O)[C@H](NC(=O)N[C@@H](CCC(=O)O)c1nc(C2COCCN2)no1)C(=O)O (stereo partly shown)
Result: 57

Task: Give activity at 0.1 µM for the following compound: "CSCC[C@H](N)c1noc([C@H](CC(N)=O)NC(=O)N[C@@H](CC(=O)O)C(=O)O)n1"
Result: 53

Task: Give activity at 0.1 µM for the following compound: COC(C)[C@H](NC(=O)N[C@@H](CC(N)=O)c1nc([C@@H](N)CO)no1)C(=O)O (stereo partly shown)
Result: 84

* * *

Parameter activity at 0.1 µM: see the listing below.
biological target: PD-L1 (Mus musculus); construct: Fc (Fc chimera); purchased R&D Systems 1019-B7-100; assay: Rescue of mouse splenocyte proliferation in the presence of recombinant PD-L1 (CFSE proliferation assay); assay type: cell-based; details: 100 nM compound; anti-CD3/CD28 stimulated mouse splenocytes + PD-L1; 72 h; read-out: PDL1 (rescue of proliferation @ 100 nM)
The answer is to be given in %; state only the numeric part.

Below: 2 compounds and their reported activity at 0.1 µM.
compound	assay_result
CC(O)[C@H](NC(=O)N[C@@H](CC(N)=O)c1nc([C@@H](N)Cc2ccccc2)no1)C(=O)O (stereo partly drawn)	62
CC(O)[C@@H](NC(=O)N[C@@H](CC(N)=O)c1nc([C@@H](N)CO)no1)C(=O)O (stereo partly drawn)	90

Task: Find the measured activity at 0.1 µM of CC(O)[C@H](NC(=O)N[C@@H](CC(N)=O)c1nc([C@@H](N)CCC(=O)O)no1)C(=O)O (stereo partly drawn) with PD-L1 (Mus musculus) as test system.
Result: 68

Task: Find the measured activity at 0.1 µM of N[C@@H](Cc1ccc(O)cc1)c1noc([C@@H]2CC(O)CN2C(=O)N[C@@H](Cc2ccc(O)cc2)C(=O)O)n1 (stereo partly drawn) with PD-L1 (Mus musculus) as test system.
Result: 57

Task: Find the measured activity at 0.1 µM of "CN[C@@H](CO)c1noc([C@@H](N)CC(N)=O)n1" with PD-L1 (Mus musculus) as test system.
Result: 53

Task: Find the measured activity at 0.1 µM of CC(O)[C@H](NC(=O)N[C@@H](CC(N)=O)c1nc(C2(N)CCCC2)no1)C(=O)O (stereo partly drawn) with PD-L1 (Mus musculus) as test system.
Result: 47

* * *

target: PD-L1 (Mus musculus, UniProt Q9EP73); construct: Fc (Fc chimera); purchased R&D Systems 1019-B7-100; experiment: Rescue of mouse splenocyte proliferation in the presence of recombinant PD-L1 (CFSE proliferation assay); format: cell-based; conditions: 100 nM compound; anti-CD3/CD28 stimulated mouse splenocytes + PD-L1; 72 h; read-out: PDL1 (rescue of proliferation @ 100 nM)
Parameter activity at 0.1 µM: see the listing below.
The answer is to be given in %; state only the numeric part.

Below: 2 compounds and their reported activity at 0.1 µM.
compound	activity at 0.1 µM / %
CCC(C)[C@H](NC(=O)N[C@H](C(=O)O)C(C)O)c1nc([C@@H](N)CO)no1 (stereo partly drawn) [Compound 15]	50
CC(O)[C@H](NC(=O)N[C@@H](CC(N)=O)c1nc(C2COCCN2)no1)C(=O)O (stereo partly drawn) [Compound 16]	92

Task: Give activity at 0.1 µM for the following compound: CCC(C)[C@H](NC(=O)N[C@@H](CC(N)=O)c1nc([C@@H](N)CO)no1)C(=O)O (stereo partly drawn) [Compound 2]
Result: 73
